I'd appreciate it if you could supply half-life at 1 µM values for the items below.
- assay: Half life in human plasma at 1 uM by LC-MS/MS analysis
- Assay type: ADME, cell-free

The examples below pair each entry with its known result.
- compound: "COc1cc(/C=C/C(=O)OCCCCCN(C)CCCOC(=O)c2cc(OC)c(OC)c(OC)c2)cc(OC)c1OC"
  half-life at 1 µM: "> 4 h"
- compound: "COc1cc(/C=C/C(=O)OCCN(C)CCCCCCOC(=O)c2cc(OC)c(OC)c(OC)c2)cc(OC)c1OC"
  half-life at 1 µM: "> 4 h"
- compound: "COc1cc(/C=C/C(=O)OCCCN(C)CCCCCCOC(=O)c2c3ccccc3cc3ccccc23)cc(OC)c1OC"
  half-life at 1 µM: "> 4 h"
- compound: "COc1cc(/C=C/C(=O)OCCCCCCCN(C)CCCOC(=O)c2c3ccccc3cc3ccccc23)cc(OC)c1OC"
  half-life at 1 µM: "> 4 h"
- compound: "COc1cc(/C=C/C(=O)OCCCCN(C)CCCCCCOC(=O)c2cc(OC)c(OC)c(OC)c2)cc(OC)c1OC"
  half-life at 1 µM: "2.05 h"
- compound: "COc1cc(/C=C/C(=O)OCCCCCN(C)CCCCOC(=O)c2cc(OC)c(OC)c(OC)c2)cc(OC)c1OC"
  half-life at 1 µM: "> 4 h"
- compound: "COc1cc(/C=C/C(=O)OCCCCCCCN(C)CCCOC(=O)c2cc(OC)c(OC)c(OC)c2)cc(OC)c1OC"
  half-life at 1 µM: "> 4 h"
- compound: "COc1cc(/C=C/C(=O)OCCCN(C)CCCCCCOC(=O)c2cc(OC)c(OC)c(OC)c2)cc(OC)c1OC"
  half-life at 1 µM: "0.65 h"
- compound: "COc1cc(/C=C/C(=O)OCCCCCCN(C)CCCOC(=O)c2cc(OC)c(OC)c(OC)c2)cc(OC)c1OC"
  half-life at 1 µM: "> 4 h"
- compound: "COc1cc(/C=C/C(=O)OCCN(C)CCCCCCCOC(=O)c2c3ccccc3cc3ccccc23)cc(OC)c1OC"
  half-life at 1 µM: "> 4 h"

Batch of 7 compounds: report half-life at 1 µM for each.
1. COc1cc(/C=C/C(=O)OCCCCCCN(C)CCCCOC(=O)c2c3ccccc3cc3ccccc23)cc(OC)c1OC
2. COc1cc(/C=C/C(=O)OCCCCCCN(C)CCCCOC(=O)c2cc(OC)c(OC)c(OC)c2)cc(OC)c1OC
3. COc1cc(/C=C/C(=O)OCCCN(C)CCCCCOC(=O)c2cc(OC)c(OC)c(OC)c2)cc(OC)c1OC
4. COc1cc(/C=C/C(=O)OCCCCCCCN(C)CCOC(=O)c2c3ccccc3cc3ccccc23)cc(OC)c1OC
5. COc1cc(/C=C/C(=O)OCCCN(C)CCCCCCCOC(=O)c2cc(OC)c(OC)c(OC)c2)cc(OC)c1OC
6. CCOC(=O)C(C)c1cccc(C(=O)c2ccccc2)c1 (configuration not stated)
7. COc1cc(/C=C/C(=O)OCCCCN(C)CCCCCOC(=O)c2cc(OC)c(OC)c(OC)c2)cc(OC)c1OC

> 4 h
> 4 h
0.683 h
> 4 h
0.75 h
1.78 h
> 4 h
